# Experimental System: T1, Human IL-11 (human, UniProt P20809 22-199)
# T1 construct: Recombinant human IL-11 (GenScript Cat. No. Z03108-1) or IL-11 secreted by human cells; the mature form is said to have 178 residues; also called recombinant human IL-11; endogenously produced IL-11
# T1 sequence: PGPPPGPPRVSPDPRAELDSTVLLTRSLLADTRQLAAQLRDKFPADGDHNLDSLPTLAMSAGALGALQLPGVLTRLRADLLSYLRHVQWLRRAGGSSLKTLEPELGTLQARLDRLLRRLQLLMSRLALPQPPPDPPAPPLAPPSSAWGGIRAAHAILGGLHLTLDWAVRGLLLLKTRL
# Measurement Protocol: ELISA on coated recombinant human IL-11 (100 ng/well), scFv-Fc
Outcome Measure: EC50 (µg/mL)
Provide only the numeric value, understood in µg/mL.

| Binder | Measurement Units | Result Value |
| --- | --- | --- |
| YU112-C03 (antibody) QVQLVESGGGVVQPGRSLRLSCAASGFTFSSYGMHWVRQAPGKGLEWVAVISYDGSNKYYADSVKGRFTISRDNSKNTLYLQMNSLRAEDTAVYYCAKGGKSYYGFDYWGQGTLVTVSSGSASAPKLEEGEFSEARVDSVMTQSPSSLSASVGDRVTITCRASQAINSYLNWYQQKPGKAPKLLIYAASSLQSGVPSRFSGSGSGTDFTLTISGLQPEDFATYYCQQSYSTPSWTFGQGTKVEIK | µg/mL | 0.017 |

Switching to the query record.
In plain terms, YU100-E06 (antibody) QVQLVESGGGVVQPGRSLRLSCAASGFTFSSYGMHWVRQAPGKGLEWVAVISYDGSNKYYADSVKGRFTISRDNSKNTLYLQMNSLRAEDTAVYYCAKIGATDPLDYWGQGTLVTVSSGSASAPKLEEGEFSEARVQSALTQPASVSGFPEQSITISCTGTSSDVGGYDYVSWYQQHPGKAPKLMIYDVTNRPSGVSNRFSGSKSGNTASLTISGLQPEDEADYYCSSYTSNTTWVFGGGTKLTVLRQPKAAPSVTLFPPSS has a documented EC50 of 0.024
